Subject Of Test: TcMetRS (Trypanosoma cruzi, UniProt Q4D6H2)
Sequence (Q4D6H2 entry or part of it): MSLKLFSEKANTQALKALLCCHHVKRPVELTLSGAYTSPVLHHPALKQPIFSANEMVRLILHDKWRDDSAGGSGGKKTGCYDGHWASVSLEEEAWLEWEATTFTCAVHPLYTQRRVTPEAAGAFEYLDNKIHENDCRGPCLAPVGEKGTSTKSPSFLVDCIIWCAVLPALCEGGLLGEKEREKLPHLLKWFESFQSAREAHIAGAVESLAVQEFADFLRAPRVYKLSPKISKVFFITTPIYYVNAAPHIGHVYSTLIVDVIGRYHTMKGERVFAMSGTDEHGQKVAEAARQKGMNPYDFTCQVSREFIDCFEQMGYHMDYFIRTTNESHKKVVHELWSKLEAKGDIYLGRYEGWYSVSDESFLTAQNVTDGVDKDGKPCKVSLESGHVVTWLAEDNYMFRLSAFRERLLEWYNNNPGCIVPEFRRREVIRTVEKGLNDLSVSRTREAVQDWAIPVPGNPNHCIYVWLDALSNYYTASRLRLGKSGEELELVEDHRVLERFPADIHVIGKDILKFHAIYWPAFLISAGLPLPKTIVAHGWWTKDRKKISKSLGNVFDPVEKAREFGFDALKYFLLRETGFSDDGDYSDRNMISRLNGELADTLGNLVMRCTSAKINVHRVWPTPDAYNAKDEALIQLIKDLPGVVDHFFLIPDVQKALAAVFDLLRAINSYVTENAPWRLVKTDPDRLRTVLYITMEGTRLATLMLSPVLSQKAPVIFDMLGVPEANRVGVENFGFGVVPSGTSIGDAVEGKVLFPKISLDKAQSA
Assay Comment: TcMetRS BIOMOL Green biochemical assay, 10-point dose response
Assay Conditions: 50 μM methionine, 100 μM ATP; read-out: TcMetRS Maximum % Inhibition
Recorded Metric: Emax (%)

> print(dat)
                           substance.smiles  recorded.metric  experimental.result
1           Cn1ncc2c(NCCO)nc(NC3CCOCC3)nc21             Emax                   15
2           Cn1ncc2c(NCCO)nc(NC3CCCCC3)nc21             Emax                 16.3
3  CC(C)Oc1cc(Nc2nc(NCCO)c3cnn(C)c3n2)ccc1F             Emax                  5.4
4  CC(C)Cc1cc(Nc2nc(NCCO)c3cnn(C)c3n2)ccc1F             Emax                 15.4
5     CN(c1cccc(F)c1)c1nc(NCCO)c2cnn(C)c2n1             Emax                 11.7

Origin of the recorded values: paper PMC7294809
